test: xn = mol fraction of the nth substance listed, in the solute-free solvent; settings: 293.15 K; x2 = 0.3103
Think of 2 as a floor: if solubility (g/100 g solution) stands on it or above, it is 1; beneath it, -1.

molecule="COC(=O)C1=C(C)NC(C)=C(C(=O)OCC(C)C)C1c1ccccc1[N+](=O)[O-] (stereo not given) + CCCO + O" cat=1
molecule="O=[N+]([O-])c1cc[nH]n1 + CCCO + O" cat=1
molecule="CC(=O)Nc1ccc(OC(=O)c2ccccc2OC(C)=O)cc1 + CC(C)O + O" cat=-1
molecule="CS(=O)(=O)c1ccc(C(O)C(CF)NC(=O)C(Cl)Cl)cc1 (stereo not given) + CC(C)O + O" cat=-1

Turning now to a further record.
q: Test whether the molecule COC(=O)C1=C(C)NC(C)=C(C(=O)OCC(C)C)C1c1ccccc1[N+](=O)[O-] (stereo not given) + CC(C)O + O records solubility (g/100 g solution) of 2 or higher.
a: 1

---

In this section, each of the molecules is paired with its reported solubility (g/100 g solution).
experiment: xn = mol fraction of the nth substance listed, in the solute-free solvent; details: 278.15 K; x2 = 0.9
Note: the reply should be a number with no unit written.

molecule="O=c1ccc2ccccc2o1 + CC(C)=O + O" property="solubility (g/100 g solution)" observed_result=31.5
molecule="CC1(C)SC2C(NC(=O)C(NC(=O)N3CCNC3=O)c3ccccc3)C(=O)N2C1C(=O)O (centres undefined) + CCO + CC(C)O" property="solubility (g/100 g solution)" observed_result=0.54
molecule="O=c1ccc2ccccc2o1 + CO + O" property="solubility (g/100 g solution)" observed_result=4.13

Continue with the next molecule.
q: // fetch solubility (g/100 g solution) given entry CC1(C)SC2C(NC(=O)C(NC(=O)N3CCNC3=O)c3ccccc3)C(=O)N2C1C(=O)O (centres undefined) + CO + CC(C)O
a: 0.297

---

test: xn = mol fraction of the nth substance listed, in the solute-free solvent; details: 288.15 K; x2 = 0.5
In this section, each of the molecules is paired with its reported solubility (g/100 g solution).

Consider the worked cases shown below.
molecule="CN1CCN(C(=O)OC2c3nccnc3C(=O)N2c2ccc(Cl)cn2)CC1 (stereo not drawn) + CCO + O" property="solubility (g/100 g solution)" observed_result=0.377
molecule="O=c1ccc2ccccc2o1 + CC(C)=O + O" property="solubility (g/100 g solution)" observed_result=31.4

Continue with the next molecule.
q: // fetch solubility (g/100 g solution) given entry CC1(C)SC2C(NC(=O)C(NC(=O)N3CCNC3=O)c3ccccc3)C(=O)N2C1C(=O)O (stereo not drawn) + CCO + CC(C)O
a: 0.223

---

In this section, each of the compounds is paired with its reported solubility (g/100 g solution).
assay: xn = mol fraction of the nth substance listed, in the solute-free solvent; settings: 303.15 K; x2 = 0.3103

compound="COC(=O)C1=C(C)NC(C)=C(C(=O)OCC(C)C)C1c1ccccc1[N+](=O)[O-] (stereo not given) + CC(C)O + O" observed_result=5.54
compound="CS(=O)(=O)c1ccc(C(O)C(CF)NC(=O)C(Cl)Cl)cc1 (stereo not given) + CC(C)O + O" observed_result=1.05
compound="COC(=O)C1=C(C)NC(C)=C(C(=O)OCC(C)C)C1c1ccccc1[N+](=O)[O-] (stereo not given) + CCCO + O" observed_result=5.12
compound="CC(=O)Nc1ccc(OC(=O)c2ccccc2OC(C)=O)cc1 + CC(C)O + O" observed_result=0.215

q: // fetch solubility (g/100 g solution) given entry O=[N+]([O-])c1cc[nH]n1 + CCCO + O
a: 3.44

---

assay: xn = mol fraction of the nth substance listed, in the solute-free solvent; conditions: 323.15 K; x2 = 0.5
Property: solubility (g/100 g solution)
Note: the reply should be a number with no unit written.

Consider the worked cases shown below.
compound="CCCCN1CCCCC1C(=O)Nc1c(C)cccc1C.Cl.O (centres undefined) + CO + O" property="solubility (g/100 g solution)" observed_result=23.4
compound="CCOC(=O)C1=CC2(CC)CCCN3CCc4c(n1c1ccccc41)C32 (centres undefined) + CCO + O" property="solubility (g/100 g solution)" observed_result=1.12
compound="CC1(C)SC2C(NC(=O)C(NC(=O)N3CCNC3=O)c3ccccc3)C(=O)N2C1C(=O)O (centres undefined) + CCO + CC(C)O" property="solubility (g/100 g solution)" observed_result=0.991

Continue with the next compound.
q: // fetch solubility (g/100 g solution) given entry CCCCN1CCCCC1C(=O)Nc1c(C)cccc1C.Cl.O (centres undefined) + CCO + O
a: 14.9

---

In this section, each of the molecules is paired with its reported solubility (g/100 g solution).
assay: xn = mol fraction of the nth substance listed, in the solute-free solvent; settings: 303.15 K; x2 = 0.6101
Note: the reply should be a number with no unit written.

Consider the worked cases shown below.
molecule="CS(=O)(=O)c1ccc(C(O)C(CF)NC(=O)C(Cl)Cl)cc1 (centres undefined) + CCO + O" observed_result=2.98
molecule="O=[N+]([O-])c1cc[nH]n1 + CCO + O" observed_result=4.83
molecule="COC(=O)C1=C(C)NC(C)=C(C(=O)OCC(C)C)C1c1ccccc1[N+](=O)[O-] (centres undefined) + CCO + O" observed_result=6

Continue with the next molecule.
q: // fetch solubility (g/100 g solution) given entry CC(=O)Nc1ccc(OC(=O)c2ccccc2OC(C)=O)cc1 + CCO + O
a: 0.513

---

experiment: xn = mol fraction of the nth substance listed, in the solute-free solvent; settings: 283.15 K; x2 = 0.8
Property: solubility (g/100 g solution)
Note: the reply should be a number with no unit written.

q: // fetch solubility (g/100 g solution) given entry O=C(CC(=O)c1ccccc1)c1ccccc1 + CC(C)O + O
a: 1.43

q: // fetch solubility (g/100 g solution) given entry O=c1ccc2ccccc2o1 + CO + O
a: 5.51

q: // fetch solubility (g/100 g solution) given entry O=C(CC(=O)c1ccccc1)c1ccccc1 + CO + O
a: 0.788

---

experiment: xn = mol fraction of the nth substance listed, in the solute-free solvent; settings: 293.15 K; x2 = 0.7
Property: solubility (g/100 g solution)
Note: the reply should be a number with no unit written.

Consider the worked cases shown below.
compound="O=c1ccc2ccccc2o1 + CO + O" property="solubility (g/100 g solution)" observed_result=12.7
compound="CCCCN1CCCCC1C(=O)Nc1c(C)cccc1C.Cl.O (stereo unspecified) + CCO + O" property="solubility (g/100 g solution)" observed_result=3.44
compound="CCCCN1CCCCC1C(=O)Nc1c(C)cccc1C.Cl.O (stereo unspecified) + CO + O" property="solubility (g/100 g solution)" observed_result=7.34
compound="CC1(C)SC2C(NC(=O)C(NC(=O)N3CCNC3=O)c3ccccc3)C(=O)N2C1C(=O)O (stereo unspecified) + CO + CC(C)O" property="solubility (g/100 g solution)" observed_result=0.353
compound="O=c1ccc2ccccc2o1 + CC(C)=O + O" property="solubility (g/100 g solution)" observed_result=46.2

Continue with the next compound.
q: // fetch solubility (g/100 g solution) given entry CCOC(=O)C1=CC2(CC)CCCN3CCc4c(n1c1ccccc41)C32 (stereo unspecified) + CCO + O
a: 0.546

---

test: xn = mol fraction of the nth substance listed, in the solute-free solvent; details: 298.15 K; x2 = 0.4117
Property: solubility (g/100 g solution)
Note: the reply should be a number with no unit written.

Consider the worked cases shown below.
compound="COC(=O)C1=C(C)NC(C)=C(C(=O)OCC(C)C)C1c1ccccc1[N+](=O)[O-] (centres undefined) + CCCO + O" observed_result=4.82
compound="O=[N+]([O-])c1cc[nH]n1 + CCCO + O" observed_result=3.32

q: // fetch solubility (g/100 g solution) given entry CS(=O)(=O)c1ccc(C(O)C(CF)NC(=O)C(Cl)Cl)cc1 (centres undefined) + CC(C)O + O
a: 0.873

q: // fetch solubility (g/100 g solution) given entry CC(=O)Nc1ccc(OC(=O)c2ccccc2OC(C)=O)cc1 + CC(C)O + O
a: 0.197

---

test: xn = mol fraction of the nth substance listed, in the solute-free solvent; conditions: 293.15 K; x2 = 0.6
In this section, each of the compounds is paired with its reported solubility (g/100 g solution).
Note: the reply should be a number with no unit written.

Consider the worked cases shown below.
compound="O=c1ccc2ccccc2o1 + CC(C)=O + O" property="solubility (g/100 g solution)" observed_result=42.9
compound="CCCCN1CCCCC1C(=O)Nc1c(C)cccc1C.Cl.O (centres undefined) + CO + O" property="solubility (g/100 g solution)" observed_result=5.88
compound="O=C(CC(=O)c1ccccc1)c1ccccc1 + CC(C)O + O" property="solubility (g/100 g solution)" observed_result=1.34

q: // fetch solubility (g/100 g solution) given entry CC1(C)SC2C(NC(=O)C(NC(=O)N3CCNC3=O)c3ccccc3)C(=O)N2C1C(=O)O (centres undefined) + CO + CC(C)O
a: 0.298
